ASSAY TEXT: Paste air entrainment, Maximum air protocol
EXPERIMENTAL CONTEXT: 50:50 fly ash M1 (LOI […]):PCA paste; Air 30 (0.0125 wt %)/ND/X=1/4/4, X = the labelled SA
MEASURED METRIC: Air entrained at 66 min
Hi, when you answer, please include the unit after the number. Thanks!

QUERY: Requested read-out: Air entrained at 66 min. Entry: CC(O)C(O)c1ccccc1 (stereo not drawn) [1-Phe 2-Pro, 1-Phenyl 2-propylene glycol]
RESULT: 16 vol %

QUERY: Try the molecule OCC(O)CO [Glycerol]
RESULT: 16 vol %

QUERY: Please do the same for COCCO [EGME, Ethylene glycol methyl ether] as well.
RESULT: 17 vol %

QUERY: Another molecule: CCCCOCCOCCO [Di-EGBE, Di-ethylene glycol butyl ether]
RESULT: 21 vol %

QUERY: Then this molecule: COC(C)COC(C)CO (stereo not drawn) [Di-PGME, Di-propylene glycol methyl ether]
RESULT: 20 vol %

QUERY: Proceed to OCCOc1ccccc1 [EGPE, Ethylene glycol phenyl ether]
RESULT: 18 vol %

###

Exercise: for every item that follows, state its recorded Precipitation (wt % precipitated).
ASSAY TEXT: Precipitation in slurry extract or leachate
Type: physicochemical
EXPERIMENTAL CONTEXT: solution extracted from 10 wt % fly ash M2 (LOI 5.34%) slurry, pH 12.5; entries in parentheses
Text: The pH of the solutions were adjusted to 12.5 with NaOH. […]
# number only, unit wt % dropped from output

QUERY: Please give the measured Precipitation (wt % precipitated) for this compound: NCc1ccccc1
RESULT: 15

QUERY: Now try OCCOc1ccccc1 .
RESULT: 0

QUERY: What do we get for O=S(=O)([O-])c1ccc2ccccc2c1.[Na+] [NS, Sodium 2-Naphthalene sulfonate] ?
RESULT: 0

QUERY: Now the compound O=C([O-])c1cccc2ccccc12.[Na+] [NA, 1-Naphthoic acid sodium salt]
RESULT: 0

###

ASSAY TEXT: Adsorption/precipitation of SA or AEA in 10 wt % aqueous fly ash or cement slurries at pH 12.5
Format: physicochemical
EXPERIMENTAL CONTEXT: 10 wt % fly ash N (LOI 0.30%) slurry, initial SA 3 mM
Please respond with reported Adsorption (wt % Adsorbed) for every item in the list.
Note: unit wt % is implicit; provide only the numeric part.

QUERY: Given the entry NCc1ccccc1 , report its measured Adsorption (wt % Adsorbed).
RESULT: 16

QUERY: Another molecule to check: O=S(=O)([O-])c1ccc2ccccc2c1.[Na+] [NS, Sodium 2-Naphthalene sulfonate]
RESULT: 5

QUERY: Proceed to O=C([O-])c1cccc2ccccc12.[Na+] [NA, 1-Naphthoic acid sodium salt]
RESULT: 20

QUERY: // next record OCCOc1ccccc1
RESULT: 1

###

ASSAY TEXT: Precipitation in slurry extract or leachate
Type: physicochemical
EXPERIMENTAL CONTEXT: solution extracted from 10 wt % fly ash B1 (LOI 4.36%) slurry, pH 12.5; entries in parentheses
Source text: The pH of the solutions were adjusted to 12.5 with NaOH. […]
MEASURED METRIC: Precipitation (wt % precipitated) (wt %)
Write the number in wt % without appending the unit.

QUERY: Fill blank: measured Precipitation (wt % precipitated) of the compound O=S(=O)([O-])c1ccc2ccccc2c1.[Na+] [NS, Sodium 2-Naphthalene sulfonate] is ____.
RESULT: 0

QUERY: Also NCc1ccccc1 [BA, Benzylamine] , if possible.
RESULT: 12

QUERY: O=C([O-])c1cccc2ccccc12.[Na+] [NA, 1-Naphthoic acid sodium salt] , same question.
RESULT: 0

QUERY: Here is the next compound: OCCOc1ccccc1 [EGPE, Ethylene glycol phenyl ether]
RESULT: 0

###

ASSAY TEXT: Precipitation in slurry extract or leachate
Type: physicochemical
EXPERIMENTAL CONTEXT: solution extracted from 10 wt % fly ash C2 (LOI 3.32%) slurry, pH 12.5; entries in parentheses
Record form. Attribute: Precipitation (wt % precipitated). Fill in for each entry.
Entry rule: numbers only, all in wt %.

QUERY: # input compound: O=C([O-])c1cccc2ccccc12.[Na+] [NA, 1-Naphthoic acid sodium salt] ; wanted: its Precipitation (wt % precipitated)
RESULT: 0

QUERY: Follow-up item: O=S(=O)([O-])c1ccc2ccccc2c1.[Na+] [NS, Sodium 2-Naphthalene sulfonate]
RESULT: 0

QUERY: Ok, now OCCOc1ccccc1
RESULT: 0

QUERY: For NCc1ccccc1 then?
RESULT: 14

###

ASSAY TEXT: Adsorption/precipitation of SA or AEA in 10 wt % aqueous fly ash or cement slurries at pH 12.5
Format: physicochemical
EXPERIMENTAL CONTEXT: 10 wt % fly ash M1 (LOI […]) slurry, initial SA 3 mM, Air 30/Air 40 0.105 wt %
MEASURED METRIC: Adsorption (wt % Adsorbed) (wt %)
The reply should contain only the number, in wt %.

QUERY: Quick one: Adsorption (wt % Adsorbed) for OCCOc1ccccc1 [EGPE, Ethylene glycol phenyl ether] ?
RESULT: 4

QUERY: Please give the result for O=C([O-])c1cccc2ccccc12.[Na+] [NA, 1-Naphthoic acid sodium salt] too.
RESULT: 90

QUERY: Item: O=S(=O)([O-])c1ccc2ccccc2c1.[Na+] [NS, Sodium 2-Naphthalene sulfonate]
RESULT: 11

QUERY: Proceed to NCc1ccccc1 [BA, Benzylamine]
RESULT: 13

###

I'd be grateful if you could share measured B1 + 0.0125% DDBS + 0.1% SA (air entrainment) for these entries.
ASSAY TEXT: Second sacrificial agent testing protocol: paste air measurements with DDBS (0.0125 wt %) and rating
Hey, just send me the number, nothing else.

QUERY: I would be grateful if you could share the reported B1 + 0.0125% DDBS + 0.1% SA (air entrainment) for COCCO [EGME, Ethylene glycol methyl ether] .
RESULT: 4.3

QUERY: Item: CCCC[N+](CCCC)(CCCC)CCCC.[Cl-] [Tetrabutyl ammonium chloride]
RESULT: 4.1

QUERY: Param item: CCCCO [1-Butanol]
RESULT: 6.5

QUERY: Subsequent entry: CCO [Ethanol]
RESULT: 3.3

QUERY: Cool, now CCC(C)O (stereo not shown) [2-Butanol]
RESULT: 6.6

QUERY: Please do the same for CCN(CC)CC [Triethylamine] as well.
RESULT: 5.1

QUERY: Moving on to the next molecule: CCCO [n-Propanol]
RESULT: 4.4

###

ASSAY TEXT: Precipitation in slurry extract or leachate
Type: physicochemical
EXPERIMENTAL CONTEXT: solution extracted from 10 wt % fly ash C1, class C (LOI 1.62%) slurry, pH 12.5; entries in parentheses
So I've got a bunch of compounds here, and I need their Precipitation (wt % precipitated) values.
# output: bare number, implied unit wt %

QUERY: Look at this compound and give its reported Precipitation (wt % precipitated). OCCOc1ccccc1 [EGPE, Ethylene glycol phenyl ether]
RESULT: 0

QUERY: Let us now turn to O=C([O-])c1cccc2ccccc12.[Na+] [NA, 1-Naphthoic acid sodium salt]
RESULT: 0

QUERY: Same thing, different compound: O=S(=O)([O-])c1ccc2ccccc2c1.[Na+] [NS, Sodium 2-Naphthalene sulfonate]
RESULT: 10

QUERY: How about NCc1ccccc1 [BA, Benzylamine] ?
RESULT: 11

###

ASSAY TEXT: Second sacrificial agent testing protocol: paste air measurements with DDBS (0.0125 wt %) and rating
EXPERIMENTAL CONTEXT: Portland cement paste (PCA); […]
MEASURED METRIC: PCA + 0.1% SA (level of air entrainment by the candidate sacrificial agent)
// keep it numeric: no unit symbol after the value

QUERY: Please give the measured PCA + 0.1% SA (level of air entrainment by the candidate sacrificial agent) for this compound: CO [Methanol]
RESULT: 0.6

QUERY: Also COP(=O)([O-])OC.[Na+] [Dimethylphosphate Na] ?
RESULT: 1.3

QUERY: Query CC(O)CO (stereo not shown) [Propylene Glycol] next
RESULT: 0.5

QUERY: Continue with CCCCCCCCCCO [1-Decanol]
RESULT: 0.0

###

ASSAY TEXT: Second sacrificial agent testing protocol: paste air measurements with DDBS (0.0125 wt %) and rating
EXPERIMENTAL CONTEXT: Portland cement paste (PCA); […]
Use true when the recorded PCA + 0.1% SA (level of air entrainment by the candidate sacrificial agent) is no lower than 1; use false when it is lower.

QUERY: Determine whether measured PCA + 0.1% SA (level of air entrainment by the candidate sacrificial agent) meets or exceeds 1 for CCCCCCCC(=O)OC [Methyloctanoate]
RESULT: false

QUERY: CCN1CCCC1=O ?
RESULT: true

QUERY: And the next one, CCCCCO ?
RESULT: false

QUERY: Again, but for CC(C)(C)O
RESULT: false

QUERY: Can you handle CC(O)CN(CC(C)O)CC(C)O (centres unmarked) next?
RESULT: true

QUERY: Another compound to check: OCCNCCO
RESULT: false

QUERY: Moving on to O=C(O)Cc1ccccc1
RESULT: false

QUERY: O=P([O-])([O-])O.[Na+].[Na+] [Sodium phosphate dibasic] , same question.
RESULT: false

QUERY: Repeat with CC(C)O
RESULT: true

QUERY: Next record, please: O=S(=O)([O-])c1cc(O)c2c(O)cc(S(=O)(=O)[O-])cc2c1.[Na+].[Na+]
RESULT: false
